TARGET DESC: T1, PSMA Fab (Fab biotinylated for capture on neutravidin plates (site not given))
T1 construct: also called Anti-PSMA Fab; 006 PSMA Fab
ASSAY TEXT: phage ELISA: biotinylated PSMA Fab on neutravidin plate, clonal phage supernatant, anti-M13 HRP; blocking buffer alone
Measured phage binding ELISA signal by item

GWRQCEPVWMCSGF (peptide, not shown: large carriers, Clonal phage of the Peptide-180 library) [Phage-4011] ... 0.423

Exercise: Assign phage binding ELISA signal to the following record: FEVRCVPTWMCAGQ (peptide, not shown: large carriers, Clonal phage of the Peptide-180 library) [Phage-4010]
Key: 0.427

Exercise: Please give the documented phage binding ELISA signal of APRMCSPPWMCYEL (peptide, not shown: large carriers, Clonal phage of the Peptide-180 library) [Phage-4013]
Key: 0.416
